Assign pIC50 to each entry below.
- Tested Target: PANC08.13 cells (Homo sapiens, UniProt P01116, G12D)
- Construct: p-ERK/total ERK AlphaSureFire read-out
- Sequence (P01116 1-188 isoform P01116-2 G12D): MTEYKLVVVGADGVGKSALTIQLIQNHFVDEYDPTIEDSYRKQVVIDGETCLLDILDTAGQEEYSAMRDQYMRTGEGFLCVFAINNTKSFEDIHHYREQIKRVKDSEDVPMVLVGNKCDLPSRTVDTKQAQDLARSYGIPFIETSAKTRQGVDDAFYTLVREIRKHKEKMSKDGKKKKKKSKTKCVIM
- Experiment Summary: Cellular phospho-ERK assay, PANC08.13 cells (KRAS G12D)
- Measurement Conditions: 2 hours, read-out: PANCO 813 pERK IC50
One number for each entry, as −log10 of the molar value.

The following compounds have reported results that may help.
Compound	pIC50
Cc1cc2[nH]ncc2c(-c2nccc3c2sc2nc(OC[C@]4(CO)CC4(F)F)nc(N4C[C@H]5CC[C@@H](C4)N5)c23)c1OC(F)F	5.17
FC(F)c1c(Cl)cc2[nH]ncc2c1-c1nccc2c1sc1nc(OC[C@@]34CCCN3C[C@H](F)C4)nc(N3C[C@H]4CC[C@@H](C3)N4)c12	6.66
Cc1cc(N)nc(-c2nccc3c4c(N5C[C@H]6CC[C@@H](C5)N6)nc(OC[C@@]56CCCN5C[C@H](F)C6)nc4n(C)c23)c1C(F)(F)F	5.01
Cc1cc2[nH]nc(C#N)c2c(-c2nccc3c4c(N5C[C@H]6CC[C@@H](C5)N6)nc(OC[C@@]56CCCN5C[C@H](F)C6)nc4n(C)c23)c1C(F)F (single isomer, unassigned)	5.43

Test system PANC08.13 cells (Homo sapiens, UniProt P01116, G12D); read-out pIC50; what value for Cc1cc2[nH]ncc2c(-c2nccc3c2sc2nc(OC[C@@]45CCCN4C[C@H](F)C5)nc(N4C[C@H]5CC[C@@H](C4)N5)c23)c1C(F)(F)F ?
7.05

* * *

Assign IC50 to each entry below.
- Tested Target: KRAS G12C (Homo sapiens, UniProt P01116, C118S/C51S/C80L/G12C)
- Sequence (P01116 with tags, fused parts or gaps isoform P01116-2 G12C/C51S/C80L/C118S): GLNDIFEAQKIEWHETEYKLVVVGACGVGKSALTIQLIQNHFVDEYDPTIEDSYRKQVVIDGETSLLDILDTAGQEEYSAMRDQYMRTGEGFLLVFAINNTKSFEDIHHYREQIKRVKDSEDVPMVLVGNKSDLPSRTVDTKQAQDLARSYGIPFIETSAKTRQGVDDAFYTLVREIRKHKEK
- Experiment Summary: SOS-catalyzed nucleotide exchange assay, KRAS G12C (Procedure A)
- Measurement Conditions: GNE

The following compounds have reported results that may help.
Compound	IC50
Cc1cc2[nH]ncc2c(-c2nccc3c2sc2nc(OC[C@@]45CCCN4C[C@H](F)C5)nc(N4CCC5CCC(C4)N5)c23)c1C(F)(F)F (stereo partly drawn)	> 11.1 µM
OC1C2CCCC1(COc1nc(N3C[C@H]4CC[C@@H](C3)N4)c3c(n1)sc1c(-c4c(C5CC5)c(Cl)cc5[nH]ncc45)nccc13)CC2 (stereo partly drawn)	> 11.1 µM
Clc1cc2[nH]ncc2c(-c2nccc3c2sc2nc(OCC45CCOC(CO4)C5)nc(N4C[C@H]5CC[C@@H](C4)N5)c23)c1C1CC1	> 11.1 µM
C#Cc1c(F)ccc2cc(O)cc(-c3nccc4c5c(N6C[C@H]7CC[C@@H](C6)N7)nc(OC[C@@]67CCCN6C[C@H](F)C7)nc5n(C)c34)c12	0.0252 µM
Cc1cc(N)nc(-c2nccc3c4c(N5C[C@H]6CC[C@@H](C5)N6)nc(OC[C@@]56CCCN5C[C@H](F)C6)nc4n(C)c23)c1C(F)(F)F	> 11.1 µM

Could you now consider this next compound?
Reported IC50, compound C#Cc1cccc2cccc(-c3nccc4c5c(N6C[C@H]7CC[C@@H](C6)N7)nc(OC[C@@]67CCCN6C[C@H](F)C7)nc5n(C)c34)c12 : ____
1.55 µM

* * *

Assign pIC50 to each entry below.
- Tested Target: AsPC-1 cells (Homo sapiens, UniProt P01116, G12D)
- Construct: p-ERK/total ERK AlphaSureFire read-out
- Sequence (P01116 1-188 isoform P01116-2 G12D): as the sequence (P01116 1-188 isoform P01116-2 G12D) above
- Experiment Summary: Cellular phospho-ERK assay, AsPC-1 cells (KRAS G12D)
- Measurement Conditions: 2 hours, read-out: AsPC1 pERK IC50
Numbers only, as −log10 of the molar value.

The following compounds have reported results that may help.
Compound	Tested Target	pIC50
C#Cc1c(F)ccc2cc3[nH]ncc3c(-c3nccc4c3sc3nc(OC[C@]5(CN6CC7(CC(F)C7)C6)CC5(F)F)nc(N5C[C@H]6CC[C@@H](C5)N6)c34)c12	AsPC-1 cells (Homo sapiens, UniProt P01116, G12D)	7.22
Cc1cc2[nH]ncc2c(-c2nccc3c2sc2nc(OC[C@@]45CCCN4C[C@H](F)C5)nc(N4CC5COCC(C4)N5)c23)c1C(F)(F)F	AsPC-1 cells (Homo sapiens, UniProt P01116, G12D)	5.77

List pIC50 for every entry below, keeping the order given.
1. FC(F)c1c(Cl)cc2[nH]ncc2c1-c1nccc2c1sc1nc(OC[C@@]34CCCN3C[C@H](F)C4)nc(N3C[C@H]4CC[C@@H](C3)N4)c12
2. Cc1cc2[nH]ncc2c(-c2nccc3c2sc2nc(OCC4CCS(=O)(=O)CC4)nc(N4C[C@H]5CC[C@@H](C4)N5)c23)c1C(F)(F)F
3. F/C=C1\CN2CCC[C@@]2(COc2nc(N3C[C@H]4CC[C@@H](C3)N4)c3c(n2)C2(CC2)c2c-3ccnc2-c2c(C3CC3)c(Cl)cc3[nH]ncc23)C1 (single isomer, unassigned)

[6.23, 4.55, 6.43]

* * *

- Tested Target: KRAS G12D (Homo sapiens, UniProt P01116, G12D)
- Experiment Summary: SOS-catalyzed nucleotide exchange assay, KRAS G12D (Procedure A)
- Assay type: biochemical
- Measurement Conditions: guanine nucleotide exchange (GNE)
- Sequence (P01116 with tags, fused parts or gaps isoform P01116-2 G12D): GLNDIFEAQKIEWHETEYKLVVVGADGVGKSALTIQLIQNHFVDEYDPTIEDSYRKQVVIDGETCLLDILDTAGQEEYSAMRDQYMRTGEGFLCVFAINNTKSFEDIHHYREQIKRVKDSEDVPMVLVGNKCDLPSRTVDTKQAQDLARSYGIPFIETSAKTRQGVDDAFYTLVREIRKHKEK
pIC50: −log10 of the molar value.
Answer not fulfilled if pIC50 is under 7, and fulfilled if it is 7 or more.

Previously resolved entries follow.
Compound	Cat
C#Cc1c(F)ccc2cc3[nH]ncc3c(-c3nccc4c3sc3nc(OC[C@@]56CCC7(CC7)N5C[C@H](F)C6)nc(N5C[C@H]6CC[C@@H](C5)N6)c34)c12 [Ex-97]	fulfilled
C#Cc1c(F)ccc2cc3[nH]ncc3c(-c3nccc4c3sc3nc(OCC5(C#N)CCOCC5)nc(N5C[C@H]6CC[C@@H](C5)N6)c34)c12 [Ex-90]	not fulfilled
OC1C2CCCC1(COc1nc(N3C[C@H]4CC[C@@H](C3)N4)c3c(n1)sc1c(-c4c(C5CC5)c(Cl)cc5[nH]ncc45)nccc13)CC2 (stereo partly drawn) [Ex-24]	not fulfilled
C#Cc1c(F)ccc2cc3[nH]ncc3c(-c3nccc4c3sc3nc(OCC5(CN6CC[C@@H](F)C6)CC5)nc(N5C[C@H]6CC[C@@H](C5)N6)c34)c12 [Ex-94]	fulfilled
Cc1cc2[nH]ncc2c(-c2nccc3c2sc2nc(OC[C@@]45CCCN4C[C@H](F)C5)nc(N4CC5CC(C4)N5)c23)c1C(F)(F)F [Ex-67]	fulfilled

Turning to the following compound.
# bool: pIC50 of C#Cc1cc(F)cc2cc3[nH]ncc3c(-c3nccc4c3sc3nc(OC[C@@]56CCCN5C[C@H](F)C6)nc(N5C[C@H]6CC[C@@H](C5)N6)c34)c12 [Ex-86] >= 7
fulfilled

* * *

- Tested Target: KRAS G12C (Homo sapiens, UniProt P01116, C118S/C51S/C80L/G12C)
- Experiment Summary: SOS-catalyzed nucleotide exchange assay, KRAS G12C (Procedure A)
- Measurement Conditions: GNE
Property Label: pIC50
Answers are plain numbers, as −log10 of the molar value.

The following compounds have reported results that may help.
Compound	pIC50
Cc1cc2[nH]ncc2c(-c2nccc3c2sc2nc(OC[C@@]45CCCN4C[C@H](F)C5)nc(N4CC5CC(C4)N5)c23)c1C(F)(F)F [Ex-67]	6.58
Cc1cc2[nH]ncc2c(-c2nccc3c2sc2nc(OC[C@@]45CCCN4C[C@H](F)C5)nc(N4C[C@H]5CC[C@@H](C4)N5)c23)c1C(F)(F)F [Ex-12]	6.23
Cc1cc2[nH]ncc2c(-c2nccc3c2sc2nc(OC[C@@]45CCCN4C[C@H](F)C5)nc(N4C[C@H]5C[C@@H]4CN5)c23)c1C(F)(F)F [Ex-70]	6.02

Could you now consider this next compound?
Reported pIC50, compound Cc1cc2[nH]ncc2c(-c2nccc3c2sc2nc(OC[C@@]45CCCN4C[C@H](F)C5)nc(N4CC5COCC(C4)N5)c23)c1C(F)(F)F [Ex-65] : ____
5.71

* * *

- Tested Target: KRAS G12D (Homo sapiens, UniProt P01116, G12D)
- Experiment Summary: SOS-catalyzed nucleotide exchange assay, KRAS G12D (Procedure B; Example 14)
- Type: biochemical
- Set-up: KRAS G12D (amino acids 1-169, N-terminal His-tag); made in house; host or cells: E. coli
- Measurement Conditions: 1 hour compound incubation, SOS1 and GMPPNP 30 minutes, read-out: KRAS G12D GNE IC50
- Sequence (P01116 with tags, fused parts or gaps isoform P01116-2 G12D): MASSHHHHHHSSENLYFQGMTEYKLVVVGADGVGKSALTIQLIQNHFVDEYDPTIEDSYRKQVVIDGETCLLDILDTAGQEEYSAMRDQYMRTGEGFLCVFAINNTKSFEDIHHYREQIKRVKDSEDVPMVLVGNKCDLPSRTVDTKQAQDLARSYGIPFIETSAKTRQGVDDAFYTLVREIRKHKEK
Property Label: IC50 (nM)
Numbers only, in nM.

Reported IC50, molecule FC(F)c1ccc2[nH]ncc2c1-c1nccc2c1sc1nc(OC[C@@]34CCCN3C[C@H](F)C4)nc(N3C[C@H]4CC[C@@H](C3)N4)c12 : ____
110

* * *

- Tested Target: AsPC-1 cells (Homo sapiens, UniProt P01116, G12D)
- Construct: p-ERK/total ERK AlphaSureFire read-out
- Experiment Summary: Cellular phospho-ERK assay, AsPC-1 cells (KRAS G12D)
- Measurement Conditions: 2 hours, read-out: AsPC1 pERK IC50
Property Label: IC50 (nM)
Give bare numbers, in nM.

The following molecules have reported results that may help.
Molecule	Units Symbol	Numeric Value
Cc1cc2[nH]ncc2c(-c2nccc3c4c(N5C[C@H]6CC[C@@H](C5)N6)nc(OC[C@@]56CCCN5C[C@H](F)C6)nc4n(C)c23)c1C(F)(F)F (single isomer, unassigned) [Ex-1]	nM	455
C#Cc1c(F)ccc2cc3[nH]ncc3c(-c3nccc4c3sc3nc(OC[C@]5(CN6CCC(COC)CC6)CC5(F)F)nc(N5C[C@H]6CC[C@@H](C5)N6)c34)c12 [Ex-111]	nM	172
C#Cc1c(F)ccc2cc3[nH]ncc3c(-c3nccc4c3sc3nc(OC[C@]5(CN6CCC7(CCCCC7)CC6)CC5(F)F)nc(N5C[C@H]6CC[C@@H](C5)N6)c34)c12 [Ex-100]	nM	753
Cc1cc2[nH]nc(C#N)c2c(-c2nccc3c4c(N5C[C@H]6CC[C@@H](C5)N6)nc(OC[C@@]56CCCN5C[C@H](F)C6)nc4n(C)c23)c1C(F)(F)F (single isomer, unassigned) [Ex-2]	nM	15100

List IC50 for every entry below, keeping the order given.
1. C#Cc1c(F)ccc2cc3[nH]ncc3c(-c3nccc4c3sc3nc(OC[C@]5(CN6CCC6)CC5(F)F)nc(N5C[C@H]6CC[C@@H](C5)N6)c34)c12 [Ex-107]
2. C#Cc1cccc2cc3[nH]ncc3c(-c3nccc4c3sc3nc(OC[C@@]56CCCN5C[C@H](F)C6)nc(N5C[C@H]6CC[C@@H](C5)N6)c34)c12 [Ex-55]
3. C#Cc1c(F)ccc2cc3[nH]ncc3c(-c3nccc4c3sc3nc(OC[C@@]56CCCN5C[C@@H](F)C6)nc(N5CC6CCC(C5)N6)c34)c12 [Ex-108]
4. Cc1cc2[nH]ncc2c(-c2nccc3c2sc2nc(OC[C@@]45CCCN4C[C@H](F)C5)nc(N4[C@@H]5CC[C@H]4CNC5)c23)c1C(F)(F)F [Ex-71]
5. C#Cc1c(F)ccc2cc3[nH]ncc3c(-c3nccc4c3sc3nc(OCC5(CN6CC[C@@H](F)C6)CC5)nc(N5C[C@H]6CC[C@@H](C5)N6)c34)c12 [Ex-94]
6. Fc1ccc2cc3[nH]ncc3c(-c3nccc4c3sc3nc(OC[C@@]56CCCN5C[C@H](F)C6)nc(N5C[C@H]6CC[C@@H](C5)N6)c34)c2c1 [Ex-57]
7. C#Cc1c(F)ccc2cc3[nH]ncc3c(-c3nccc4c3sc3nc(OCC56CCCN5CC(=C(F)F)C6)nc(N5C[C@H]6CC[C@@H](C5)N6)c34)c12 (stereo partly drawn) [Ex-93]

1: 51.8; 2: 25; 3: 16.2; 4: 885; 5: 85.9; 6: 299; 7: 18
